- assay-protocol: RP, Waters ACQUITY UPLC BEH C18, 50 × 2.1 mm, 1.7 µm, 55 °C, 0.4 mL/min, estimated dead time 0.28 min; A: 40% water + 60% acetonitrile + 0.1% acetic acid + 10 mM ammonium acetate; B: 10% acetonitrile + 90% isopropanol + 0.1% acetic acid + 10 mM ammonium acetate; gradient (min/%B) 0/40 2/43 2.1/50 12/54 12.1/70 18/99 19/99
- assay-conditions: stereoisomer not certain
parameter-measured: LC retention time (min)

compound: CCCCC/C=C\C/C=C\CCCCCCCC(=O)O
LC retention time / min: 2
--
compound: CCCCCCCCCCCC(=O)O
LC retention time / min: 1
--
compound: CC12CCC3C(CCC4CC(OS(=O)(=O)O)CCC43C)C1CCC2=O (stereo not drawn)
LC retention time / min: 1
--
compound: CCCCCCCCCCCCC(O)C(=O)O (stereo not drawn) [2-hydroxymyristic acid]
LC retention time / min: 0.92
--
compound: CCCCCCCCC=CCCCCCCCC(=O)OC(COC(=O)CCCCCCCCCCCCCCC)COP(=O)(O)OC1C(O)C(O)C(O)C(O)C1O (stereo not drawn)
LC retention time / min: 6

1 = CC(CCC(=O)O)C1CCC2C3C(O)CC4CC(O)CCC4(C)C3CC(O)C12C (stereo not drawn)
2 = CCCCCCCC/C=C\CCCCCCCCCCCC(=O)O [cis-13-docosenoic acid]
Prompt: Select one: 1 or 2 . Criterion: greater recorded LC retention time. Your answer should be the label of the entry you select.
Response: 2
(2: 4 min, 1: 1 min)

P = CCCCCCCCCCCCCCCC(=O)OCC(O)COP(=O)([O-])OCC[N+](C)(C)C (stereo not drawn)
Q = CCCCCC=CCC=CCC=CCC=CCCCC(=O)OC(COCCCCCCCCCCCCCCCC)COP(=O)([O-])OCC[N+](C)(C)C (stereo not drawn)
R = CCCCCC=CCC=CCC=CCC=CCCCC(=O)O
Prompt: Arrange the 3 compounds from largest to smallest LC retention time. # answer = labels listed in requested order
Response: Q, R, P

P = CCCCCC/C=C\CCCC(=O)O [cis-5-dodecenoic acid]
Q = CCCCCC=CCC=CCCCCCCCC(=O)OC(COC(=O)CCCCCCCCCCCCCCC)COP(=O)([O-])OCC[N+](C)(C)C (stereo not drawn)
Prompt: Thinking about recorded LC retention time values, which is higher, P or Q ? Your choice should be expressed through its label.
Response: Q
